Assay: CREB reporter modulators under forskolin, primary screen, cell-based, PC12, CRE-LacZ reporter, forskolin-stimulated (AID 1146);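 further: PC12 cells with 6xCRE LacZ reporter stimulated by forskolin 10 µM; beta-galactosidase reporter signal reflecting CREB driven transcription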
Settings: luminescence, 4.5 h, higher = more signal, called active from +8 up or from −8 down
property: z-score

{"compound": "O=C1C[C@@H](O)[C@@H](O)[C@@H]2[C@@H]3C(=O)N(Cc4ccccc4)C(=O)[C@@H]3CC[C@H]12", "valueObserved": -0.497}
{"compound": "CO[C@@H]1COC(=O)[C@@H]2CCCN2C(=O)[C@@H](C)COC(=O)CCC[C@H]1C", "valueObserved": -0.269}
{"compound": "CO[C@@H]1C=CCC(=O)N[C@@H](C)C(=O)OC[C@@H](NS(=O)(=O)c2ccc(C)cc2)[C@H](C)C=CCC(=O)OC[C@H]1C", "valueObserved": -1.23}
{"compound": "COc1cccc([C@H]2Oc3ccc(OC)cc3C(=NOCC[C@@H]3C=C[C@H](OC(C)=O)[C@@H](COC(C)=O)O3)[C@@H]2O)c1", "valueObserved": 0.497}
{"compound": "COC(=O)[C@H](CCSC)NC(=O)CC=C[C@@H](C)CO", "valueObserved": 0.118}
{"compound": "C#CCCCON=C1C[C@@H](O)[C@@H](O)[C@@H]2[C@@H]3C(=O)N([C@@H](C)c4ccccc4)C(=O)[C@@H]3CC[C@@H]12", "valueObserved": 0.227}
{"compound": "COC(=O)[C@H](C)NC(=O)CCC1CC(OC(=O)NCc2ccc3c(c2)OCO3)CC2(CCCC(COC(=O)NCCC(C)C)O2)O1 (stereo partly drawn)", "valueObserved": -1.22}
{"compound": "C[C@H]1CC[C@@H](C(=O)O)N[C@@H]1c1ccc(C#Cc2ccccc2)cc1", "valueObserved": -1.58}
